Measured IC50 (read off the curve) of individual entries
- target under test: T1, human PD-L1 expressed on 300.19 cells (human, UniProt Q9NZQ7 19-290)
- T1 construct: whole, on cells; also called huPD-L1; PD-L1-expressing 300.19 cells
- T1 sequence (Q9NZQ7 19-290): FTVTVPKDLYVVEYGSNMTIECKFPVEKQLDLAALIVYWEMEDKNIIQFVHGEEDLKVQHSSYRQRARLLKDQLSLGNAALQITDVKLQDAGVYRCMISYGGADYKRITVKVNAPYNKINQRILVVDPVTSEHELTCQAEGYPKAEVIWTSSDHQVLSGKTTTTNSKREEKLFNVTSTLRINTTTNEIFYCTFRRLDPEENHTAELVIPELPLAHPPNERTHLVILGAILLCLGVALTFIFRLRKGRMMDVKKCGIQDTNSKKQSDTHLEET
- measurement protocol: blocking of PE-labelled PD-1-Ig (0.7 µg/mL) binding to PD-L1-expressing 300.19 cells, FACS, 4 C, 4 h

binder="chimeric mAb BAP058-chi (antibody, V domains shown, also called chimeric antibody; the chimera) VH: EVQLQQSGAELVKPGASVKLSCKASGYTFTSYWMYWVKQGPGRGLEWIGRIDPNSGSTKYNEKFKNKATLTVDKSSSTAYMQLSSLTSEDSAVYYCARDYRKGLYAMDYWGQGTTVTVSS VL: DIMMTQSHKFMSTSVGDRVSITCKASQDVGTAVAWYQQKPGQSPKLLIYWASTRHTGVPDRFTGSGSGTDFTLTISNVQSEDLADYFCQQYNSYPLTFGQGTKVEIK" result="~0.04 µg/mL"

In plain terms, BAP058-hum11 (antibody, human IgG4 S228P, kappa, V domains shown, Humanized IgG4(S228P)/human kappa mAb expressed in CHO cells) VH: EVQLVQSGAEVKKPGATVKISCKVSGYTFTSYWMYWVRQATGQGLEWMGRIDPNSGSTKYNEKFKNRVTITADKSTSTAYMELSSLRSEDTAVYYCARDYRKGLYAMDYWGQGTTVTVSS VL: DVVMTQSPLSLPVTLGQPASISCKASQDVGTAVAWYQQKPGQAPRLLIYWASTRHTGVPSRFSGSGSGTEFTLTISSLQPDDFATYYCQQYNSYPLTFGQGTKVEIKR has a documented IC50 (read off the curve) of ~0.04 µg/mL

Per the record, BAP058-hum13 (antibody, human IgG4 S228P, kappa, V domains shown, Humanized IgG4(S228P)/human kappa mAb expressed in CHO cells) VH: EVQLVQSGAEVKKPGATVKISCKVSGYTFTSYWMYWVRQARGQRLEWIGRIDPNSGSTKYNEKFKNRFTISRDNSKNTLYLQMNSLRAEDTAVYYCARDYRKGLYAMDYWGQGTTVTVSS VL: AIQLTQSPSSLSASVGDRVTITCKASQDVGTAVAWYLQKPGQSPQLLIYWASTRHTGVPSRFSGSGSGTDFTFTISSLEAEDAATYYCQQYNSYPLTFGQGTKVEIKR has IC50 (read off the curve) of ~0.04 µg/mL
